B1: PBXIP1 (parent)
chain: FGEDGIFRHDRLRFRDFVDALEDS

variants of: B1; test: protein stability index of a GFP-peptide fusion (GPS, HEK-293T) (PSI 1-6); higher = more stable; details: c terminus: a fixed tail appended;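 further: lentivirally expressed fusions sorted by FACS into six bins by GFP to DsRed ratio, PSI derived from sequencing read proportions per bin multiplied by bin number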
REPORTED PROPERTY: protein stability index
One number for each entry.

[
  {
    "RESIDUE CHANGE": "D16L",
    "protein stability index": 1.55
  },
  {
    "RESIDUE CHANGE": "R15A",
    "protein stability index": 2.38
  },
  {
    "RESIDUE CHANGE": "D4L",
    "protein stability index": 1.99
  },
  {
    "RESIDUE CHANGE": "F7Y",
    "protein stability index": 2.98
  },
  {
    "RESIDUE CHANGE": "F1L",
    "protein stability index": 3.14
  },
  {
    "RESIDUE CHANGE": "R15T",
    "protein stability index": 2.44
  },
  {
    "RESIDUE CHANGE": "F7T",
    "protein stability index": 2.71
  },
  {
    "RESIDUE CHANGE": "R11P",
    "protein stability index": 3.13
  }
]

// input: 5 variants below; output: protein stability index for each
1. D23R
2. A20L
3. D23G
4. H9S
5. G2S

Reply text:
1.98
2.09
3.02
2.79
2.48

The values you see were collected from the supplement of paper PMC10567573.
